Record form. Attribute: solubility at 15 min. Fill in for each entry.
# Experimental protocol: Solubility in PBS
# Format: physicochemical
# Experimental parameters: Solubility (uM)

>  <Molecule>
CC(=O)N1CCC[C@]12CC=CCCCC1(CCCC=CCCCCCC[C@@](C)(C(=O)N[C@@H](Cc3ccccc3)C(=O)N[C@@H](Cc3c[nH]c4ccccc34)C(=O)N[C@@H](CCC(N)=O)C(N)=O)NC(=O)[C@H](C(C)C)NC(=O)C(Cc3cncn3C)NC(=O)[C@H](C)NC(=O)[C@H](C)NC(=O)[C@H](CC(=O)O)NC(=O)[C@H](CC(=O)O)NC1=O)NC(=O)[C@H](C)NC(=O)[C@H](CC(=O)O)NC2=O (single isomer, unassigned)

>  <solubility at 15 min>
41 µM

$$$$

// moving on: another record for solubility at 15 min
Need solubility at 15 min of CC(=O)N1CCC[C@]12CC=CCCCC1(CCCC=CCCCOC(=O)N3CC[C@@](C(=O)N[C@@H](Cc4ccccc4C(F)(F)F)C(=O)N[C@@H](Cc4csc5ccccc45)C(=O)N[C@@H](CCC(N)=O)C(N)=O)(C3)NC(=O)[C@H](CC(C)C)NC(=O)[C@H](Cc3ccccc3)NC(=O)[C@H](C)NC(=O)[C@H](C)NC(=O)[C@H](Cc3cccc(C(=O)O)c3)NC(=O)[C@H](CC(=O)O)NC1=O)NC(=O)[C@H](CC(C)(C)C)NC(=O)[C@H](CC(=O)O)NC2=O (some centres unmarked) , thanks.
11 µM
